# Target under test: Cytochrome P450 3A4 (Homo sapiens)
# Sequence (P08684 whole entry): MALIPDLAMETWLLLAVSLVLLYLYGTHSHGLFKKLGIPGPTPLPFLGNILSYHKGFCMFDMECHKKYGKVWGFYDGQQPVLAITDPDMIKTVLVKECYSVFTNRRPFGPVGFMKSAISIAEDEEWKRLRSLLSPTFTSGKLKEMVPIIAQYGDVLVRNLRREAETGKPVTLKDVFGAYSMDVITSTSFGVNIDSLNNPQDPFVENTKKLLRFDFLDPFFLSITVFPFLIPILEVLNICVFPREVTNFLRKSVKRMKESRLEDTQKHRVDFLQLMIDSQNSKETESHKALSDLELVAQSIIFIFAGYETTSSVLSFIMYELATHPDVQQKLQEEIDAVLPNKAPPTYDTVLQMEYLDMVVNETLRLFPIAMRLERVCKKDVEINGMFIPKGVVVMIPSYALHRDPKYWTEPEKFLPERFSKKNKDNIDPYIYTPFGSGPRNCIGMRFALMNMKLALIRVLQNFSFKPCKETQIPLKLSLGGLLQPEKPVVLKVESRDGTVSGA
# Assay notes: Inhibition of CYP3A4 after 30 mins by fluorometric assay
# Assay type: ADME
# Condition info: read-out: IC50
Quantity name: IC50 (µM)

>>> value("COc1cc(C[C@H]2CO[C@H](c3ccc(O)c(OC)c3)[C@H]2CO)ccc1O")
25.6
>>> value("COc1cc([C@@H]2Oc3cc(CCCO)ccc3O[C@H]2CO)ccc1O")
54.2
>>> value("COc1cc([C@H]2OC[C@H]([C@@H](O)c3ccc(O)c(OC)c3)[C@@H]2CO)ccc1O")
66.5
>>> value("COc1cc(C[C@H]2CO[C@H](c3ccc(O)c(O)c3)[C@H]2CO)ccc1O")
85.6
>>> value("COc1cc([C@H]2c3cc(O)c(OC)cc3C[C@H]3C(=O)OC[C@H]23)ccc1O")
0.2
>>> value("COc1cc(C[C@@H](CO)[C@H](CO)Cc2ccc(O)c(OC)c2)ccc1O [(+)-SECOISOLARICIRESINOL]")
47.3

Reference source for all entries: ChEMBL document CHEMBL1667737
